# Tested on: HEK-293T
# experiment.summary: Multiplex assay against HEK293T
# Format: toxicity, cell-based
# setup.conditions: human, 48 h, 10 µM, compound concentration 10 uM, replicate 2
Non-standard residues stand in square brackets, D forms with d. Residues, ends and D or L forms follow the SMILES beside them.
Form field: Population Healthy Nuclei (%) (one value per entry).
property.name: Population Healthy Nuclei (%)

compound: CN1CCN(c2ccc(Nc3c4ccccc4nc4ccccc34)cc2)CC1.Cl.Cl.O
property.name: Population Healthy Nuclei (%)
uom: %
assay.result: 46

compound: Cc1cc(O)c(-c2ccc([C@@H](C)CN(C)C)cc2)c2c1[nH]c(=O)c1sccc12
property.name: Population Healthy Nuclei (%)
uom: %
assay.result: 58

compound: CC(C)(C)c1ccc(CSc2cnn(C(C)(C)C)c(=O)c2Cl)cc1
property.name: Population Healthy Nuclei (%)
uom: %
assay.result: 71

compound: Cc1sc2c(c1C)C(c1ccc(Cl)cc1)=N[C@H](CC(=O)OC(C)(C)C)c1nnc(C)n1-2
property.name: Population Healthy Nuclei (%)
uom: %
assay.result: 76

compound: CN1CCC(C(=O)c2cccc(NC(=O)c3c(F)cc(F)cc3F)n2)CC1
property.name: Population Healthy Nuclei (%)
uom: %
assay.result: 81

compound: Nc1nc(CC(=O)Nc2ccc(CCNC[C@H](O)c3ccccc3)cc2)cs1
property.name: Population Healthy Nuclei (%)
uom: %
assay.result: 80

compound: CCCCC[C@H](O)/C=C/[C@H]1[C@H](O)CC(=O)[C@@H]1CCCCCCC(=O)O
property.name: Population Healthy Nuclei (%)
uom: %
assay.result: 79

compound: Cc1cc(NC(=O)NCCN2CCC(O)(Cc3ccccc3)CC2)c2ccccc2n1
property.name: Population Healthy Nuclei (%)
uom: %
assay.result: 84

compound: CC(F)(F)CN1CCOc2c(nn(-c3ccccc3Cl)c2-c2ccc(Cl)cc2)C1=O
property.name: Population Healthy Nuclei (%)
uom: %
assay.result: 78

compound: COc1cc2nc(N3CCN(C(=O)c4ccco4)CC3)nc(N)c2cc1OC.Cl [PRAZOSIN HYDROCHLORIDE]
property.name: Population Healthy Nuclei (%)
uom: %
assay.result: 78

compound: Cc1cc(-c2ccc3c(c2)CC[C@H]3N2CC3(CCN(C(=O)Cc4cn5cc(C)sc5n4)CC3)C2)ncn1
property.name: Population Healthy Nuclei (%)
uom: %
assay.result: 78

compound: CC(C)C[C@H](CO)Nc1nc(S[C@@H](C)c2ccccc2)nc2nc(N)sc12
property.name: Population Healthy Nuclei (%)
uom: %
assay.result: 75

compound: CN1C[C@H](C(=O)N[C@]2(C)O[C@@]3(O)[C@@H]4CCCN4C(=O)[C@H](Cc4ccccc4)N3C2=O)C[C@@H]2c3cccc4[nH]cc(c34)C[C@H]21.CS(=O)(=O)O [DIHYDROERGOTAMINE MESYLATE]
property.name: Population Healthy Nuclei (%)
uom: %
assay.result: 77

compound: CSc1nc(NC2CCCC2)c([N+](=O)[O-])c(NC2CCCC2)n1
property.name: Population Healthy Nuclei (%)
uom: %
assay.result: 77

compound: O=c1nc2[nH]c3ccccc3nc-2c(=O)[nH]1
property.name: Population Healthy Nuclei (%)
uom: %
assay.result: 78

compound: CN(C)C/C=C/C(=O)Nc1ccc(C(=O)N2CCCC(Nc3ncc(Cl)c(-c4c[nH]c5ccccc45)n3)C2)cc1 (stereo unspecified)
property.name: Population Healthy Nuclei (%)
uom: %
assay.result: 30

compound: COc1cc2nc(N3CCN(C(=O)COc4c(OC)cccc4C(C)C)CC3)nc(N)c2cc1OC.Cl.Cl
property.name: Population Healthy Nuclei (%)
uom: %
assay.result: 59

compound: Cc1c(Cc2ccc3ccccc3n2)c2cc(F)ccc2n1CC(=O)O
property.name: Population Healthy Nuclei (%)
uom: %
assay.result: 78

compound: COc1ccc2c(c1OCc1ccccc1)C[C@@H](C(=O)O)N(C(=O)C(c1ccccc1)c1ccccc1)C2
property.name: Population Healthy Nuclei (%)
uom: %
assay.result: 80

compound: CC(C)C[C@@H]1NC(=O)[C@@H](C(C)C)NC(=O)[C@@H]2CCCN2C(=O)[C@@H](CC(=O)O)NC(=O)[C@@H](Cc2c[nH]c3ccccc23)NC1=O [BQ-123] (cyclo(L[dW][dD]P[dV]))
property.name: Population Healthy Nuclei (%)
uom: %
assay.result: 80

compound: COc1ccc2[nH]c(I)c(CCNC(C)=O)c2c1
property.name: Population Healthy Nuclei (%)
uom: %
assay.result: 75

compound: O=C(NCCNCC(O)COc1ccc(O)cc1)N1CCOCC1.O=C(NCCNCC(O)COc1ccc(O)cc1)N1CCOCC1.O=C(O)/C=C/C(=O)O (stereo unspecified) [XAMOTEROL FUMARATE]
property.name: Population Healthy Nuclei (%)
uom: %
assay.result: 77

compound: O=c1ccc2ccc(OCCCCN3CCN(c4cccc5sccc45)CC3)cc2[nH]1
property.name: Population Healthy Nuclei (%)
uom: %
assay.result: 50

compound: CN1CCN2c3ccccc3Cc3ccccc3C2C1.Cl (stereo unspecified) [MIANSERIN HYDROCHLORIDE]
property.name: Population Healthy Nuclei (%)
uom: %
assay.result: 79

compound: Cc1nn(C)c2nc(NNC(=O)Nc3cc(Cl)nc(Cl)c3)cc(C(C)C)c12
property.name: Population Healthy Nuclei (%)
uom: %
assay.result: 79

compound: CN(C)C(=O)Cn1cc(-c2ccc(-c3nnc4ccccn34)cc2)cn1
property.name: Population Healthy Nuclei (%)
uom: %
assay.result: 79
